Answer each item with its documented yeast fitness.
B1: tRNA (parent)
chain: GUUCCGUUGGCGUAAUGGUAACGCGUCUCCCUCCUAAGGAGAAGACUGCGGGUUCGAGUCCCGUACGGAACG

- Variants of: B1
- protocol.summary: yeast fitness relative to wild type (ratio to wild type); higher = fitter; tRNA-Arg(CCU), competitive growth, 37 C, YPD
This sample holds only a part of the variants without activity.
Give the figure by itself; no unit, no explanation.

Output measured yeast fitness for this item: U32C A43G C66U 0.758

Tell us which yeast fitness value is on record for C4U A37U A70U 0.676

State its yeast fitness: C29U G41C C49A 0.62

Please indicate yeast fitness recorded for G41C G56C 0.557

Please list yeast fitness recorded for the variant C11A G48A U54A 0.584

Using known records, supply yeast fitness for C61A A65U 0.604

Provide one value: measured yeast fitness of U7C G38A G50A G58A U59A 0.579

Determine its reported yeast fitness: U8C U32C 0.81

Please give the documented yeast fitness of A21G C27U C30G U32G C46G G48A C60A 0.561

Supply reported yeast fitness belonging to this variant: C4G A15G G23A C34G G67A 0.556

Using known records, supply yeast fitness for G12A C46A U47A 0.75

Specify reported yeast fitness for the variant shown: C11G U35A C66U 0.51

Tell me its yeast fitness given C4G G52C as the entry. 0.655

Output yeast fitness of C55U C66A 0.656

Give reported yeast fitness value for C5A A14U U53A U59G 0.597

For the variant C31U G52A , give its reported yeast fitness. 0.871

Give yeast fitness for C4G G56A 0.927

# return recorded yeast fitness for input U3C A65G G68C 0.561

Return yeast fitness (reported value) for this variant: C11U G41A C60G A65G 0.624

Identify the reported yeast fitness for the following entry. G50A G58C 1.01

Input C22G A40C , output reported yeast fitness. 0.68

Output measured yeast fitness for this item: U16A G52A A57C 0.571

Tell me yeast fitness reported for C33G G63A 0.6
